B1: library; numbered along this chain (parent)
chain: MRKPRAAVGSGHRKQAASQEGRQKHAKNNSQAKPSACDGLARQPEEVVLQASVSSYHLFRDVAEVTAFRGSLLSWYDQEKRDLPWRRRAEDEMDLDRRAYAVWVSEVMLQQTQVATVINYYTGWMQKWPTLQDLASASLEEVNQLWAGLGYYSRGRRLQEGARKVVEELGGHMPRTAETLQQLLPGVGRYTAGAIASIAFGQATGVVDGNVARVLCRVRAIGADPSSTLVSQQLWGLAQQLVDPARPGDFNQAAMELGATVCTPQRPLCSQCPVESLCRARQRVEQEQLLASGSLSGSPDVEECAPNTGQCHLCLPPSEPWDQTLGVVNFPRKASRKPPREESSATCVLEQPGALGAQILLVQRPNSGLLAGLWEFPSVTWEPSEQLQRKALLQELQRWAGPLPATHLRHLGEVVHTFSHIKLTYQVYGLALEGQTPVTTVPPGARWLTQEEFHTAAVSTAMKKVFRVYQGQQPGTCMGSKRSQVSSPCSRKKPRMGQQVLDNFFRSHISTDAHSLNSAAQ

variants of: B1; test: 8OG:A repair function score (normalized; synonymous = 0, nonsense = -1) (normalized log-likelihood score); higher = more repair activity (WT-like); details: with 8OG:A DNA repair reporter (GFP) in HEK-293 MUTYH KO cells;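 note: cells sorted at 72 h after reporter transfection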
Recorded 8OG:A repair function score values for a group of variants are listed next.
Returns: the value as a bare number; no unit string appended.

Query (variant): S294R ; field requested: 8OG:A repair function score
-0.00624

Now the same for Q323D
0.0164

Now the same for Q472V
0.00907

Now the same for S486Q
-0.0168

Now the same for A203M
-0.0505
